tested on: SW-1736; test: Cytotoxicity against human SW1736 cells after 96 hrs by SRB assay; assay type: functional, cell-based; conditions: SW-1736, 96 h
measured_endpoint: EC50

Form field EC50, entry CCN(CC)c1ccc2c(-c3ccccc3C(=O)O[C@H]3CC[C@]4(C)[C@H]5CC=C6[C@@H]7CC(C)(C)CC[C@]7(C(=O)NCc7ccccc7)CC[C@@]6(C)[C@]5(C)CC[C@H]4C3(C)C)c3ccc(=[N+](CC)CC)cc-3oc2c1 : 0.27 µM

Form field EC50, entry CCN(CC)c1ccc2c(-c3ccccc3C(=O)O[C@H]3CC[C@]4(C)[C@H]5C(=O)C=C6[C@@H]7C[C@@](C)(C(=O)NCc8ccccc8)CC[C@]7(C)CC[C@@]6(C)[C@]5(C)CC[C@H]4C3(C)C)c3ccc(=[N+](CC)CC)cc-3oc2c1.[Cl-] : 0.04 µM

Form field EC50, entry CCN(CC)c1ccc2c(-c3ccccc3C(=O)O[C@H]3CC[C@]4(C)[C@H]5CC=C6[C@@H]7[C@@H](C)[C@H](C)CC[C@]7(C(=O)OCc7ccccc7)CC[C@@]6(C)[C@]5(C)CC[C@H]4C3(C)C)c3ccc(=[N+](CC)CC)cc-3oc2c1 : 12.7 µM

Form field EC50, entry C=C(C)[C@@H]1CC[C@]2(C(=O)OCc3ccccc3)CC[C@]3(C)[C@H](CC[C@@H]4[C@@]5(C)CC[C@H](OC(=O)c6ccccc6-c6c7ccc(=[N+](CC)CC)cc-7oc7cc(N(CC)CC)ccc67)C(C)(C)[C@@H]5CC[C@]43C)[C@H]12 : 6.43 µM

----------
test system: SW-1736; test: Cytotoxicity against human SW1736 cells after 96 hrs by SRB assay; assay type: functional, cell-based; conditions: SW-1736, 96 h
measured_endpoint: pEC50
# pEC50 = -log10(concentration in molar units)

Form field pEC50, entry CCN(CC)c1ccc2c(-c3ccccc3C(=O)O[C@H]3CC[C@]4(C)[C@H]5CC=C6[C@@H]7[C@@H](C)[C@H](C)CC[C@]7(C(=O)NCc7ccccc7)CC[C@@]6(C)[C@]5(C)CC[C@H]4C3(C)C)c3ccc(=[N+](CC)CC)cc-3oc2c1 : 6.62

Form field pEC50, entry CCN(CC)c1ccc2c(-c3ccccc3C(=O)O[C@H]3CC[C@]4(C)[C@H]5CC=C6[C@@H]7[C@@H](C)[C@H](C)CC[C@]7(C(=O)OC)CC[C@@]6(C)[C@]5(C)CC[C@H]4C3(C)C)c3ccc(=[N+](CC)CC)cc-3oc2c1 : 5.76

Form field pEC50, entry CCN(CC)c1ccc2c(-c3ccccc3C(=O)O[C@H]3CC[C@]4(C)[C@H]5CC=C6[C@@H]7CC(C)(C)CC[C@]7(C(=O)OCc7ccccc7)CC[C@@]6(C)[C@]5(C)CC[C@H]4C3(C)C)c3ccc(=[N+](CC)CC)cc-3oc2c1 : 5.04

Form field pEC50, entry CCN(CC)c1ccc2c(-c3ccccc3C(=O)O[C@H]3CC[C@]4(C)[C@H]5C(=O)C=C6[C@@H]7C[C@@](C)(C(=O)OCc8ccccc8)CC[C@]7(C)CC[C@@]6(C)[C@]5(C)CC[C@H]4C3(C)C)c3ccc(=[N+](CC)CC)cc-3oc2c1 : 5.95

Form field pEC50, entry C=C(C)[C@@H]1CC[C@]2(C(=O)OC)CC[C@]3(C)[C@H](CC[C@@H]4[C@@]5(C)CC[C@H](OC(=O)c6ccccc6-c6c7ccc(=[N+](CC)CC)cc-7oc7cc(N(CC)CC)ccc67)C(C)(C)[C@@H]5CC[C@]43C)[C@H]12 : 6.13

Form field pEC50, entry C=C(C)[C@@H]1CC[C@]2(C(=O)NCc3ccccc3)CC[C@]3(C)[C@H](CC[C@@H]4[C@@]5(C)CC[C@H](OC(=O)c6ccccc6-c6c7ccc(=[N+](CC)CC)cc-7oc7cc(N(CC)CC)ccc67)C(C)(C)[C@@H]5CC[C@]43C)[C@H]12 : 6.35
